# System: NCI/ADR-RES
# measurement_notes: NCI tumour cell line growth inhibition, 48 h
Calls of active or inactive are those of the source. Cut-off read from the data, not from the text of the source: active = GI50 up to about 1.1 µM and inactive = higher.
Reported GI50 values for the following molecules.

molecule | metric_name | result
O[C@H]1[C@H](O)[C@@H](Cn2nnc(-c3ccccc3)c2-c2ccccc2)OCO[C@@H]1Cn1nnc(-c2ccccc2)c1-c1ccccc1 | GI50 | 7.24 µM (inactive)
COc1cc2c(c3oc4c(O)cccc4c(=O)c13)CC(C(C)(O)CO)O2 (configuration not stated) | GI50 | > 100 µM (inactive)
COCn1c(C)c(C)c2c(=O)oc(=O)[nH]c21 | GI50 | > 100 µM (inactive)
NC(=S)N/N=C1/CCCC2CCCC[C@@H]12 (some centres not stated) | GI50 | > 100 µM (inactive)
Nc1cc2[nH]cnc2c(=O)[nH]1 | GI50 | 50.9 µM (inactive)

Return GI50 (reported value) for this molecule: COc1cccc([C@H]2C/C(=N\NC(=O)C(=O)N[C@@H](C)c3ccccc3)c3ccccc3N2)c1
7.05 µM (inactive)

Report GI50 for Nc1nc(Nc2cc(F)c(Cl)c(F)c2)cc(=O)[nH]1
> 100 µM (inactive)

Give the value of GI50 reported for the following: CC(C)(C)C(=O)OCOP(=O)(OCOC(=O)C(C)(C)C)OCC1OC(n2ccc(=O)[nH]c2=O)C(N=[N+]=[N-])C1O (configuration not stated)
7.74 µM (inactive)
